# Tested on: CCRIS mutagenicity, Ames/micronucleus/aberration tests
# experiment_description: CCRIS mutagenicity studies
# details: Test System: AMES SALMONELLA TYPHIMURIUM; Strain/Indicator: TA102; Metabolic Activation: NONE
Calls of active or inactive are those of the source. The rule behind the calls is not given here.
metric: mutagenic call

>>> measured_result("O=c1oc2ccccc2c(O)c1C1CCCc2ccccc21 (centres undefined)")
"inactive; negative"
>>> measured_result("Cc1cccc(Nc2cc(Cl)nc(SCC(=O)NCCO)n2)c1C")
"inactive; negative"
>>> measured_result("COP(=S)(OC)Oc1nc(Cl)c(Cl)cc1Cl")
"inactive; negative"
>>> measured_result("COP(=O)(OC)O/C(=C\\Cl)c1cc(Cl)c(Cl)cc1Cl")
"inactive; negative"
